# targetOrSystem: T1, recombinant human VEGF165 (human, UniProt P15692-4 27-191)
# T1 construct: also called hVEGF165; rhVEGF165
# T1 sequence (P15692 other isoform, or with tags, fused parts or gaps limits assumed): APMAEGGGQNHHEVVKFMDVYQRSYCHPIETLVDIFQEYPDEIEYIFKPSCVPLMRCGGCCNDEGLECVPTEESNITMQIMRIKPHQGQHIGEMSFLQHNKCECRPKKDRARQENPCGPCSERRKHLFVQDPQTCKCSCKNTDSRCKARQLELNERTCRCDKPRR
# assayInfo: VEGF165/hVEGFR1-Fc competition ELISA
pIC50: −log10 of the molar value.

| binder | pIC50 |
| --- | --- |
| VEGFBII024 (VHH, biparatopic bivalent VHH in one chain; also called VEGFBII23B04-40GS-86H09; VEGFBI024) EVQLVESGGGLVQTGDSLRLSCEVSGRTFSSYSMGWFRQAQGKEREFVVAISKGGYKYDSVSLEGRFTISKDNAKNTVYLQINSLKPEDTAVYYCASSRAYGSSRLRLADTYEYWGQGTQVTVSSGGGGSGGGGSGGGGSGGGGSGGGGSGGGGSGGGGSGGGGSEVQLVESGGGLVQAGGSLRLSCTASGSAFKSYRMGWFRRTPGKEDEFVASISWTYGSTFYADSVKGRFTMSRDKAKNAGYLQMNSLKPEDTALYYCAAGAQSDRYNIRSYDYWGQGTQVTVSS | 9.49 |
